Tested on: 282377-053-R-J1-PDC complex spheroids, viability
run_description: Anticancer human tumor 282377-053-R-J1-PDC patient-derived colon adenocarcinoma cell line growth inhibition [GQUAD]
assay_context: second compound 0.1 µM; first compound 0.1 µM; active compounds read low
Give measured viability, T/C for each item. Keep answers brief.
Give bare numbers, in %.

Could I get viability, T/C for every one of these entries?
1. CC(C)n1c(=O)n(C)c2cnc3cc(F)c(-c4ccc(OCCCN5CCCCC5)nc4)cc3c21 + Cc1cnc(CNC(=O)c2c(=O)c3ccc(N4CCCN(C)CC4)nc3n3c2sc2ccccc23)cn1
2. Cc1cccc(N(C)C(=O)C2C(O)CCN2c2nc(C)cc(C(F)(F)F)c2C#N)c1 (stereo unspecified) + Cc1[nH]c2ccc(F)cc2c1-c1nc2c3cccnc3c3ncccc3c2[nH]1
3. O=C(c1cc(Cc2n[nH]c(=O)c3ccccc23)ccc1F)N1CCN(C(=O)C2CC2)CC1 + CN(C)c1ccc(Nc2c3ccc(NC(=O)CCN4CCCC4)cc3nc3cc(NC(=O)CCN4CCCC4)ccc23)cc1
4. CC1COCCN1c1cc(-c2ccnn2C)c2ccnc(-c3ccn[nH]3)c2n1 (stereo unspecified) + CN(C)c1ccc(Nc2c3ccc(NC(=O)CCN4CCCC4)cc3nc3cc(NC(=O)CCN4CCCC4)ccc23)cc1
5. CC(=O)O[C@H]1C(=O)[C@@]2(C)[C@H]([C@H](OC(=O)c3ccccc3)[C@]3(O)C[C@H](OC(=O)[C@H](O)[C@@H](NC(=O)c4ccccc4)c4ccccc4)C(C)=C1C3(C)C)[C@]1(OC(C)=O)CO[C@@H]1C[C@@H]2O + Cc1cnc(CNC(=O)c2c(=O)c3ccc(N4CCCN(C)CC4)nc3n3c2sc2ccccc23)cn1
6. CC(C)(O)C1CCC(Nc2ccc3ncc(-c4cccc(C(F)(F)F)c4)n3n2)CC1 (stereo unspecified) + Cc1[nH]c2ccc(F)cc2c1-c1nc2c3cccnc3c3ncccc3c2[nH]1

1: 80.2; 2: 91.3; 3: 107; 4: 75.7; 5: 22.9; 6: 103

Could I get viability, T/C for every one of these entries?
1. C=CC(=O)N1CCN(c2nc(=O)n(-c3c(C)ccnc3C(C)C)c3nc(-c4c(O)cccc4F)c(F)cc23)C(C)C1 (stereo unspecified) + Cc1cnc(CNC(=O)c2c(=O)c3ccc(N4CCCN(C)CC4)nc3n3c2sc2ccccc23)cn1
2. CC(C)(O)C1CCC(Nc2ccc3ncc(-c4cccc(C(F)(F)F)c4)n3n2)CC1 (stereo unspecified) + Cc1cnc(CNC(=O)c2c(=O)c3ccc(N4CCCN(C)CC4)nc3n3c2sc2ccccc23)cn1
3. C=CCn1c(=O)c2cnc(Nc3ccc(N4CCN(C)CC4)cc3)nc2n1-c1cccc(C(C)(C)O)n1 + Cc1[nH]c2ccc(F)cc2c1-c1nc2c3cccnc3c3ncccc3c2[nH]1
4. CC(C)n1c(=O)n(C)c2cnc3cc(F)c(-c4ccc(OCCCN5CCCCC5)nc4)cc3c21 + CN(C)c1ccc(Nc2c3ccc(NC(=O)CCN4CCCC4)cc3nc3cc(NC(=O)CCN4CCCC4)ccc23)cc1
5. CC1COCCN1c1cc(C2(O)CC3CCC(C2)O3)c2cnn(-c3ccn[nH]3)c2n1 (stereo unspecified) + Cc1[nH]c2ccc(F)cc2c1-c1nc2c3cccnc3c3ncccc3c2[nH]1

1. 91.7
2. 79.1
3. 65.2
4. 101
5. 85.7

----------
Test system: 282377-053-R-J1-PDC complex spheroids, viability
run_description: Anticancer human tumor 282377-053-R-J1-PDC cell line growth inhibition [GQUAD]; active = viability on the fitted dose curve at most 10% of control; inactive = the rest;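 further: spheroids exposed to compounds for 7 days before readout; percent of vehicle DMSO control viability with 100% = untreated-like growth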
assay_context: second compound 1 µM; first compound 3.16 µM
Description: DNA G-quadruplex Stabilizer Agents in Combinations in Complex Spheroids A high-throughput screen of multi-cell type tumor spheroids was designed to identify active combinations of DNA G-quadruplex stabilizer agents and targeted small molecules. […] Compounds. […] If the clinical Cmax for an agent had not been determined, the highest concentration tested was 10 microM. […]
Choose one outcome from this list and give only that: active, inactive

Answered examples (10):
| molecule | group |
| --- | --- |
| C#Cc1c(F)ccc2cc(O)cc(-c3ncc4c(N5CC6CCC(C5)N6)nc(OCC56CCCN5CC(F)C6)nc4c3F)c12 (stereo unspecified) + CN(C)c1ccc(Nc2c3ccc(NC(=O)CCN4CCCC4)cc3nc3cc(NC(=O)CCN4CCCC4)ccc23)cc1 | inactive |
| C=CCn1c(=O)c2cnc(Nc3ccc(N4CCN(C)CC4)cc3)nc2n1-c1cccc(C(C)(C)O)n1 + Cc1[nH]c2ccc(F)cc2c1-c1nc2c3cccnc3c3ncccc3c2[nH]1 | inactive |
| COc1cccc2c1C(=O)c1c(O)c3c(c(O)c1C2=O)CC(O)(C(=O)CO)CC3OC1CC(N)C(O)C(C)O1 (stereo unspecified) + Cc1[nH]c2ccc(F)cc2c1-c1nc2c3cccnc3c3ncccc3c2[nH]1 | inactive |
| C#Cc1c(F)ccc2cc(O)cc(-c3ncc4c(N5CC6CCC(C5)N6)nc(OCC56CCCN5CC(F)C6)nc4c3F)c12 (stereo unspecified) + Cc1[nH]c2ccc(F)cc2c1-c1nc2c3cccnc3c3ncccc3c2[nH]1 | active |
| COc1cc(C2c3cc4c(cc3C(OC3OC5COC(C)OC5C(O)C3O)C3COC(=O)C23)OCO4)cc(OC)c1O (stereo unspecified) + Cc1[nH]c2ccc(F)cc2c1-c1nc2c3cccnc3c3ncccc3c2[nH]1 | inactive |
| COc1cc(C2c3cc4c(cc3C(OC3OC5COC(C)OC5C(O)C3O)C3COC(=O)C23)OCO4)cc(OC)c1O (stereo unspecified) + Cc1cnc(CNC(=O)c2c(=O)c3ccc(N4CCCN(C)CC4)nc3n3c2sc2ccccc23)cn1 | inactive |
| CC1COCCN1c1cc(-c2ccnn2C)c2ccnc(-c3ccn[nH]3)c2n1 (stereo unspecified) + Cc1cnc(CNC(=O)c2c(=O)c3ccc(N4CCCN(C)CC4)nc3n3c2sc2ccccc23)cn1 | inactive |
| CC(C)(O)C1CCC(Nc2ccc3ncc(-c4cccc(C(F)(F)F)c4)n3n2)CC1 (stereo unspecified) + Cc1cnc(CNC(=O)c2c(=O)c3ccc(N4CCCN(C)CC4)nc3n3c2sc2ccccc23)cn1 | inactive |
| O=C(NO)c1cnc(N2CCN(S(=O)(=O)c3ccc4ccccc4c3)CC2)nc1 + Cc1[nH]c2ccc(F)cc2c1-c1nc2c3cccnc3c3ncccc3c2[nH]1 | inactive |
| Nc1ccn(C2OC(CO)C(O)C2(F)F)c(=O)n1 (stereo unspecified) + Cc1cnc(CNC(=O)c2c(=O)c3ccc(N4CCCN(C)CC4)nc3n3c2sc2ccccc23)cn1 | inactive |

Attention now turns to another entry.
Which outcome did this test record for the molecule O=C(c1cc(Cc2n[nH]c(=O)c3ccccc23)ccc1F)N1CCN(C(=O)C2CC2)CC1 + CN(C)c1ccc(Nc2c3ccc(NC(=O)CCN4CCCC4)cc3nc3cc(NC(=O)CCN4CCCC4)ccc23)cc1 ? inactive

----------
Give measured viability, T/C for each item. Keep answers brief.
System: 282377-053-R-J1-PDC complex spheroids, viability
run_description: Anticancer human tumor 282377-053-R-J1-PDC cell line growth inhibition [GQUAD];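 further: spheroids exposed to compounds for 7 days before readout; percent of vehicle DMSO control viability with 100% = untreated-like growth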
assay_context: second compound 3.16 µM; first compound 0.316 µM; active compounds read low
Numbers only, in %.

| compound | test_system | numeric_readout |
| --- | --- | --- |
| Nc1ccn(C2OC(CO)C(O)C2(F)F)c(=O)n1 (stereo unspecified) + CN(C)c1ccc(Nc2c3ccc(NC(=O)CCN4CCCC4)cc3nc3cc(NC(=O)CCN4CCCC4)ccc23)cc1 | 282377-053-R-J1-PDC complex spheroids, viability | 44.5 |
| CC1COCCN1c1cc(C2(O)CC3CCC(C2)O3)c2cnn(-c3ccn[nH]3)c2n1 (stereo unspecified) + Cc1[nH]c2ccc(F)cc2c1-c1nc2c3cccnc3c3ncccc3c2[nH]1 | 282377-053-R-J1-PDC complex spheroids, viability | 11.3 |
| Cn1ncnc1[C@H]1c2n[nH]c(=O)c3cc(F)cc(c23)N[C@@H]1c1ccc(F)cc1 + Cc1[nH]c2ccc(F)cc2c1-c1nc2c3cccnc3c3ncccc3c2[nH]1 | 282377-053-R-J1-PDC complex spheroids, viability | 70.3 |
| C=CC(=O)N1CCN(c2nc(=O)n(-c3c(C)ccnc3C(C)C)c3nc(-c4c(O)cccc4F)c(F)cc23)C(C)C1 (stereo unspecified) + Cc1[nH]c2ccc(F)cc2c1-c1nc2c3cccnc3c3ncccc3c2[nH]1 | 282377-053-R-J1-PDC complex spheroids, viability | 71.5 |
| CC1COCCN1c1cc(C2(S(C)(=N)=O)CC2)nc(-c2ccnc3[nH]ccc23)n1 (stereo unspecified) + CN(C)c1ccc(Nc2c3ccc(NC(=O)CCN4CCCC4)cc3nc3cc(NC(=O)CCN4CCCC4)ccc23)cc1 | 282377-053-R-J1-PDC complex spheroids, viability | 86.3 |

Could I get viability, T/C for every one of these entries?
1. CCc1c2c(nc3ccc(O)cc13)-c1cc3c(c(=O)n1C2)COC(=O)[C@]3(O)CC + CN(C)c1ccc(Nc2c3ccc(NC(=O)CCN4CCCC4)cc3nc3cc(NC(=O)CCN4CCCC4)ccc23)cc1
2. CC1COCCN1c1cc(C2(S(C)(=N)=O)CC2)nc(-c2ccnc3[nH]ccc23)n1 (stereo unspecified) + Cc1[nH]c2ccc(F)cc2c1-c1nc2c3cccnc3c3ncccc3c2[nH]1
3. CCc1c2c(nc3ccc(O)cc13)-c1cc3c(c(=O)n1C2)COC(=O)[C@]3(O)CC + Cc1[nH]c2ccc(F)cc2c1-c1nc2c3cccnc3c3ncccc3c2[nH]1
4. CCCS(=O)(=O)Nc1ccc(F)c(C(=O)c2c[nH]c3ncc(-c4ccc(Cl)cc4)cc23)c1F + Cc1[nH]c2ccc(F)cc2c1-c1nc2c3cccnc3c3ncccc3c2[nH]1

1: 43.7; 2: 56.2; 3: 11.8; 4: 71.9

Could I get viability, T/C for every one of these entries?
1. COc1ncnc(C2CC2)c1-c1ncc2cnn(Cc3ccc(-c4nc(C(F)(F)F)cn4C(C)C)cc3)c2n1 + Cc1[nH]c2ccc(F)cc2c1-c1nc2c3cccnc3c3ncccc3c2[nH]1
2. CC[C@@]1(O)C(=O)OCc2c1cc1n(c2=O)Cc2cc3c(CN(C)C)c(O)ccc3nc2-1 + CN(C)c1ccc(Nc2c3ccc(NC(=O)CCN4CCCC4)cc3nc3cc(NC(=O)CCN4CCCC4)ccc23)cc1

93.2
82.2
